Molecular target: CDK9 CCNT1 (human) (UniProt P50750+O60563)
Sequence (O60563 whole entry, looked up): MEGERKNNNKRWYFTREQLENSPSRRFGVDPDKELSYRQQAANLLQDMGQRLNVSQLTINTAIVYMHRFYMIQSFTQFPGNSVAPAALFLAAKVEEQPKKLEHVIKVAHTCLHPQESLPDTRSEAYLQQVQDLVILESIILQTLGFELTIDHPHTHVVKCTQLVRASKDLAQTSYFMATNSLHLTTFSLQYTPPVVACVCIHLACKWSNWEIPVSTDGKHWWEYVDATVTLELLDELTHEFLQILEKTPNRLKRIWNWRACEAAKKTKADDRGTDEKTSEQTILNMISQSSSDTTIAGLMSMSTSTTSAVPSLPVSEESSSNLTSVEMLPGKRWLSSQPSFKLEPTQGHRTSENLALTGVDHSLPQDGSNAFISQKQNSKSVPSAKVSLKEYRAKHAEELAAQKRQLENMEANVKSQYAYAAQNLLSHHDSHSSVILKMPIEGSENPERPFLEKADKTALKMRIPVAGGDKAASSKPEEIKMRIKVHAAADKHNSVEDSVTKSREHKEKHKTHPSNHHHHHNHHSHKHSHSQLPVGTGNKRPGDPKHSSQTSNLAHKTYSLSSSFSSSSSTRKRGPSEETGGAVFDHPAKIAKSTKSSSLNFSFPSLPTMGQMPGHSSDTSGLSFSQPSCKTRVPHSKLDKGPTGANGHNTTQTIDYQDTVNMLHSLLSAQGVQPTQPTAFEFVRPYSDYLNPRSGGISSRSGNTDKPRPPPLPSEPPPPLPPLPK
Sequence (P50750 whole entry, looked up): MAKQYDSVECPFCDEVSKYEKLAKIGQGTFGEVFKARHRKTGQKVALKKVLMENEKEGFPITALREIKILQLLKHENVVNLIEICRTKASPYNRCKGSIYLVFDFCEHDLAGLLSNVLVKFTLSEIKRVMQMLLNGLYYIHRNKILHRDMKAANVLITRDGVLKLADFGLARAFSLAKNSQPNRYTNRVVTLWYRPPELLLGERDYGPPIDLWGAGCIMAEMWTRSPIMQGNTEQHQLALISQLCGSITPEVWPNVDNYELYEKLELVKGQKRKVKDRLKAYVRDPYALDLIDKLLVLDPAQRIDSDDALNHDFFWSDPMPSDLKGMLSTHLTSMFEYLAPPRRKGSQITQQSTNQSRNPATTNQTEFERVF
Test: radiometric filter-binding kinase assay, Kinase HotSpot
Conditions: compound 0.5 µM; ATP 10 µM
property measured: residual activity

See these solved cases before continuing.
compound	measurement target	residual activity
COc1cc2ncnc(Nc3ccc(F)c(Cl)c3)c2cc1OCCCN1CCOCC1	CDK9 CCNT1 (human) (UniProt P50750+O60563)	87.3%
O=C1Nc2ccccc2/C1=C\c1c(Cl)[nH]c2ccccc12	CDK9 CCNT1 (human) (UniProt P50750+O60563)	98.4%
CSc1nc(-c2ccc(F)cc2)c(-c2ccnc(NC(C)c3ccccc3)c2)[nH]1 (centres undefined)	CDK9 CCNT1 (human) (UniProt P50750+O60563)	99.1%

Shifting focus to the compound that follows.
The recorded residual activity for `O=C1Cc2c([nH]c3ccc([N+](=O)[O-])cc23)-c2ccccc2N1` is 22.6%

* * *

Molecular target: TAOK1 (human)
Assay: radiometric filter-binding kinase assay, Kinase HotSpot
Conditions: compound 0.5 µM; ATP 10 µM
property measured: residual activity (%)
Respond with the bare value in %.

See these solved cases before continuing.
molecule	residual activity, %
COc1cc2ncnc(Nc3ccc(F)c(Cl)c3)c2cc1OCCCN1CCOCC1	103
O=c1cc(-c2cccc3c2Sc2ccccc2S3)oc(N2CCOCC2)c1	107
Nc1nc(Nc2ccc(S(N)(=O)=O)cc2)nn1C(=S)Nc1c(F)cccc1F	11.3

TAOK1 (human) data for `O=c1cc(N2CCNCC2)oc2c(-c3ccccc3)cccc12` ; its residual activity: 90.8

* * *

Biological target: CAMK2G (human)
Assay: radiometric filter-binding kinase assay, Kinase HotSpot
Conditions: compound 0.5 µM; ATP 10 µM
property measured: residual activity (%)
Respond with the bare value in %.

CAMK2G (human) data for `CC(C)n1cnc2c(Nc3cccc(Cl)c3)nc(NCCO)nc21` ; its residual activity: 106

CAMK2G (human) data for `CCCNC(=O)Nc1ccc(Oc2ncnc3cc(OC)c(OC)cc23)cc1Cl` ; its residual activity: 90.5

CAMK2G (human) data for `COc1cc2nccc(Oc3ccc(NC(=S)NC(=O)c4ccccc4C)cc3)c2cc1OC` ; its residual activity: 103

CAMK2G (human) data for `C#Cc1cccc(Nc2ncnc3cc(OCCOC)c(OCCOC)cc23)c1` ; its residual activity: 115

* * *

residual activity values for the compounds below.
Molecular target: PDGFRB (human)
Experiment: radiometric filter-binding kinase assay, Kinase HotSpot
Details: compound 0.5 µM; ATP 10 µM
Form field: result (number plus unit)

See these solved cases before continuing.
compound	result
Cc1cc2ncc(-c3ccccc3)nc2cc1C	89.1%
CCN1/C(=C/C(C)=O)Sc2ccc(OC)cc21	107%
COc1cc2nccc(Oc3ccc(NC(=S)NC(=O)c4ccccc4C)cc3)c2cc1OC	26.7%

The recorded residual activity for `CC(C)n1cnc2c(Nc3cccc(Cl)c3)nc(NCCO)nc21` is 94.7%

The recorded residual activity for `Nc1n[nH]c2nnc(-c3c(-c4ccccc4)nn4ccccc34)cc12` is 114%

The recorded residual activity for `O=C1Nc2ccccc2/C1=C\c1c(Cl)[nH]c2ccccc12` is 102%

The recorded residual activity for `O=C1Nc2cc(Br)ccc2/C1=C1/Nc2ccccc2/C1=N\O` is 35.2%

The recorded residual activity for `O=c1cc(-c2cccc3c2Sc2ccccc2S3)oc(N2CCOCC2)c1` is 102%
